Numbers sourced from the array DNA melting data of Ke et al. (doi:10.1101/2024.01.08.574731).

# assayText: folding enthalpy; higher = less favourable; fluorescence melt of hairpins on a sequencing array, two-state fit
# particulars: sodium 0.088 M
// map folding enthalpy to label using bottom: < -30 kcal/mol; middle: ≥ -30 kcal/mol and < -20 kcal/mol; top: ≥ -20 kcal/mol

Category of CGCGGACCATTCCGCG ((((((....)))))) :
bottom

Category of GGTAGAGCGAAAGCTACC (((..(((....)))))) :
top

Category of GTAACCGAAAGGTCTAC ((((((....))).))) :
top

Category of GTAGACGAAAGTCTGTAC ((((((....)))..))) :
top

Category of GTAGGCGAAAGCCTATAC ((((((....)))..))) :
top

Category of GACTCCCGAAAGGGGGTC (((.(((....))).))) :
bottom

Category of GCGTAGCGAAAGCCGCGC (((..((....))..))) :
top

Category of GAAGGCGAAAGCCGTTC ((((((....))).))) :
top

Category of GACATGGGAAACCATATC ((.((((....)))).)) :
top

Category of GGTGAGACGAAAGTCACC (((..(((....)))))) :
top

Category of GCGCGGCGAAAGCCTAGC ((..(((....)))..)) :
middle

Category of GAGAGCGGAAACGCCCTC (((.(((....))).))) :
top

Category of GGGCGGCGAAAGCCACCC (((.(((....))).))) :
middle

Category of GTAAGCGAAAGCTGCTAC ((((((....)))..))) :
top

Category of GTGGTAGGAAACTACCGC (.(((((....))))).) :
bottom

Category of GAGAGTGGAAACACCCTC (((.(((....))).))) :
middle

Category of GGCTCCTCGAAAGAGGCC (((..(((....)))))) :
top

Category of GCAAAGGGAAACCTCTGC (((.(((....))).))) :
top

Category of GCACAGGAAACTGTGC ((((((....)))))) :
bottom

Category of GGGAGTGGAAACGTTCCC ((((..(....)..)))) :
top

Category of GATCGAACTTCGATC ((((((...)))))) :
bottom

Category of GATCTGGGGACAGATC ((((((....)))))) :
bottom

Category of GTCGTCGAAAGACCCGAC ((((((....)))..))) :
top

Category of GGCACGGGAAACCACGCC (((..((....))..))) :
middle

Category of GGTAGGGGAAACTCTACC (((((.(....).))))) :
bottom

Category of CGTGGCGGAAACGCTACG (((.(((....))).))) :
bottom

Category of GTACCACGAAAGTGTAC (((.(((....)))))) :
middle

Category of GATCTAGATCTAGATC ((((((....)))))) :
bottom

Category of GCACGGGGAAACCCGCGC ((.((((....)))).)) :
bottom

Category of GTCAGCGAAAGCTCTGAC ((((((....)))..))) :
top

Category of GCTCTGGGAAACCAGAGC (((((((....))))))) :
bottom

Category of GAATAGCGAAAGCTGTTC (((.(((....))).))) :
bottom

Category of GCAGGAGGAAACCCCTGC (((((.(....).))))) :
bottom

Category of GACCACGAAAGTGAAGTC ((((((....)))..))) :
middle

Category of GCGTGGCGAAAGCCTGGC ((..(((....)))..)) :
top

Category of GGAGCTGGAAACGGTTCC (((.(.(....).).))) :
top

Category of GCGAGCGAAAGCTACCGC ((((((....)))..))) :
top

Category of GCCATGCGAAAGCTTCGC ((.(.((....)).).)) :
top

Category of GCCAAGGGAAACCCTGGC ((((.((....)).)))) :
bottom

Category of GCCCTAGGAAACTAGAGC ((.((((....)))).)) :
middle

Category of GTCTTGCGAAAGCAGAC (((.(((....)))))) :
middle

Category of GTTCGGCGAAAGCCAAC (((.(((....)))))) :
top

Category of GTGCACCGAAAGGTCCAC (((.(((....))).))) :
middle

Category of GGACCCGGAAACGGATCC (((.(((....))).))) :
bottom

---

# assayText: melting temperature; fluorescence melt of hairpins on a sequencing array, two-state fit, raised by 9.35 °C to match UV melts
# particulars: sodium 0.088 M
Hi there, I'd appreciate the recorded Tm for every entry that follows.
Output spec: scalar in °C, unitless text.

Find the measured Tm of GCAAGCGAAAGCTGGTGC ((((((....)))..))) and report it.
47.6

Find the measured Tm of GTGTCCGAAAGGATCAC ((((((....))).))) and report it.
51

Find the measured Tm of GGCTTACGAAAGTATGCC (((.(((....))).))) and report it.
56.8

Find the measured Tm of GCTGTGCGAAAGCGCTGC ((.(.((....)).).)) and report it.
60.1

Find the measured Tm of GGGCTCGAAAGAGTCCCC ((((((....)))..))) and report it.
60.3

Find the measured Tm of GCTAGGGAAACCTAGC ((((((....)))))) and report it.
58.4

Find the measured Tm of GCCTCCGGAAACGAAGGC ((((.((....)).)))) and report it.
48.8

Find the measured Tm of GGAAGCGAAAGCTTTCC ((((((....))).))) and report it.
50.1

Find the measured Tm of GCGTATCCGAAAGGACGC (((..(((....)))))) and report it.
50.2

Find the measured Tm of GCGCCCGAAAGGGTTCGC ((((((....)))..))) and report it.
54.6

Find the measured Tm of GGGAGCGAAAGCTGTCCC ((((((....)))..))) and report it.
45.6

Find the measured Tm of GATCTGGGAAACCGGATC ((((.((....)).)))) and report it.
49.8

---

# assayText: folding enthalpy; higher = less favourable; fluorescence melt of hairpins on a sequencing array, two-state fit
# particulars: sodium 0.088 M
Hi there, I'd appreciate the recorded folding enthalpy for every entry that follows.
Answer format: value, then unit.

Find the measured folding enthalpy of GCCGTTGGAAACAACGAC (.(((((....))))).) and report it.
-16.9 kcal/mol

Find the measured folding enthalpy of GCGCTGCGAAAGCATCGC (((.(((....))).))) and report it.
-60.2 kcal/mol

Find the measured folding enthalpy of GCGAATCTCGC ((((...)))) and report it.
-19.7 kcal/mol

Find the measured folding enthalpy of GGAAGTCGAAAGACTCC (((.(((....)))))) and report it.
-17.9 kcal/mol

Find the measured folding enthalpy of GAGCGTGGAAACATGCTC ((((.((....)).)))) and report it.
-55.5 kcal/mol

Find the measured folding enthalpy of GATCCAGCAGTGGATC ((((((....)))))) and report it.
-41.1 kcal/mol

Find the measured folding enthalpy of GATCCGGCCTCGGATC ((((((....)))))) and report it.
-42.1 kcal/mol

Find the measured folding enthalpy of GGCGGCGAAAGCCATGCC ((((((....)))..))) and report it.
-16.5 kcal/mol

Find the measured folding enthalpy of GCGATACGAAAGTACCGC (((.(((....))).))) and report it.
-43.2 kcal/mol

Find the measured folding enthalpy of GAATTGGGAAACCGATTC ((((.((....)).)))) and report it.
-36.4 kcal/mol

Find the measured folding enthalpy of GTCGGAGGAAACCCCGAC (((((.(....).))))) and report it.
-33.3 kcal/mol

Find the measured folding enthalpy of GAACAAGGAAACCTGTTC (((((.(....).))))) and report it.
-25.7 kcal/mol

Find the measured folding enthalpy of GGTAATGGAAACGTTACC (((((.(....).))))) and report it.
-40.4 kcal/mol

Find the measured folding enthalpy of GATCGCCAACGCGATC ((((((....)))))) and report it.
-36.6 kcal/mol

Find the measured folding enthalpy of GATCACGGAAACGCGATC ((((.((....)).)))) and report it.
-34.3 kcal/mol

Find the measured folding enthalpy of GATCGCACGGGCGATC ((((((....)))))) and report it.
-30.9 kcal/mol

Find the measured folding enthalpy of GCGGGGCGAAAGCCTGGC ((..(((....)))..)) and report it.
-19.2 kcal/mol

Find the measured folding enthalpy of GATCATAAACATGATC ((((((....)))))) and report it.
-31 kcal/mol

Find the measured folding enthalpy of GATCACATGGTGATC ((((((...)))))) and report it.
-37 kcal/mol

Find the measured folding enthalpy of GCCGCACCGAAAGGTGGC (((..(((....)))))) and report it.
-8.56 kcal/mol

Find the measured folding enthalpy of GCCCAAGGAAACTTGGAC (.(((((....))))).) and report it.
-19.6 kcal/mol

Find the measured folding enthalpy of GGGTGTGGAAACACGCTC (.(.(((....))).).) and report it.
-17.8 kcal/mol

Find the measured folding enthalpy of CGCCCTCGGAAACGAGCG (((..(((....)))))) and report it.
-12.2 kcal/mol

Find the measured folding enthalpy of GATCGGGCCTCCGATC ((((((....)))))) and report it.
-36.6 kcal/mol

Find the measured folding enthalpy of GTCGGCGAAAGCCGGAC ((((((....))).))) and report it.
-12.4 kcal/mol

Find the measured folding enthalpy of TGAAAGAAATTTCA (((((....))))) and report it.
-5.86 kcal/mol
